Catalogue of compounds with associated pIC50
biological target: PD-1/PD-L1 interaction (Homo sapiens); assay: PD-1/PD-L1 blockage cell-based bioassay (Jurkat NFAT luciferase / CHO-PDL1 co-culture); details: Jurkat NFAT cells co-cultured with CHO-PDL1 cells, 6 h, luminescence
Sequence (Q9NZQ7 19-290): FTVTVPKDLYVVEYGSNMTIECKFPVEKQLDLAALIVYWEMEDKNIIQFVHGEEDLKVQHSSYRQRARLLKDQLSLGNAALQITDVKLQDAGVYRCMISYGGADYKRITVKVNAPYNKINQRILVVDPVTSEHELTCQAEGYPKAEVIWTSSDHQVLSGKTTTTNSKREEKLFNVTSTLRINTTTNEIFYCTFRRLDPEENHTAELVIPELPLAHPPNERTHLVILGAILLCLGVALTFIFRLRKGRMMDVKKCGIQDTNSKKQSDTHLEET
pIC50: −log10 of the molar value.

Past entries and their recorded results:
Query block: Which pIC50 is reported for this compound? CCOC(=O)C1(C)CN(Cc2c(OC)cc(-n3ncc4c(-c5cccc(-c6ccc(CNC[C@@H]7CCC(=O)N7)c(OC)n6)c5Cl)cccc43)cc2OC)C1 [Example 151]
Result block: > 6.70

Query block: Item: CCOC(=O)[C@@H](NCc1c(OC)cc(-n2ncc3c(-c4cccc(-c5ccc(CNC[C@@H]6CCC(=O)N6)c(OC)n5)c4Cl)cccc32)cc1OC)[C@@H](C)O [Example 146]
Result block: 5.70 to 6.70

More entries:
Query block: Which pIC50 is reported for this compound? COc1cc(-n2ncc3c(-c4cccc(-c5ccc(CN[C@H]6C[C@@H](O)C6)c(OC)n5)c4Cl)cccc32)cc(OC)c1CN1CC(C)(C(N)=O)C1 [Example 105]
Result block: > 6.70

Query block: Item: COc1cc(-n2ncc3c(-c4cccc(Nc5nc(C(F)F)nc6cc(CN7CC[C@@H](O)C7)cnc56)c4C)cccc32)cc(OC)c1CN(C)C12CCC(C(=O)O)(CC1)CC2 [Example 166]
Result block: > 6.70

Query block: Item: COc1cc(-n2ncc3c(-c4cccc(-c5ccc(CN6CC(C(C)(C)O)C6)c(OC)n5)c4Cl)cccc32)cc(OC)c1CN1CC2(CNC(=O)C2)C1 [Example 138]
Result block: 5.70 to 6.70
